# test target: human chemokine receptor CXCR7 (Homo sapiens (Human))
# Sequence (P25106 whole entry): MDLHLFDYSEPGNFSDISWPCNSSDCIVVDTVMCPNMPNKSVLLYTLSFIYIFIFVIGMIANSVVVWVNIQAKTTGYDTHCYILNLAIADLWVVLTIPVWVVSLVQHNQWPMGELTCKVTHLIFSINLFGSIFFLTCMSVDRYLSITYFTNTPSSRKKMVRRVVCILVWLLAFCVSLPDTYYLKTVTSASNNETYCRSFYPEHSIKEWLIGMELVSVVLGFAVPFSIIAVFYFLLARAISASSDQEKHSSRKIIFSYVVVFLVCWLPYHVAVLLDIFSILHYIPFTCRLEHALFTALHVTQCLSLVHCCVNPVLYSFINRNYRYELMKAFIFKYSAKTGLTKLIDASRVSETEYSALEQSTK
# test method notes: Tango CXCR7-bla U2OS beta-arrestin recruitment assay (beta-lactamase reporter, FRET), antagonism of CXCL12/SDF1-α
# Assay type: cell-based
# experimental conditions: antagonistic effect on CXCR7; Tango CXCR7-bla U2OS cells, CXCL12/SDF1-α at its EC80
measured metric: pIC50
Reminder that pIC50 is minus the log10 of a molar concentration.

Reference set (2 entries):
molecule: CC1(NC(=O)[C@@H]2CN(C3CCCCC3)CC[C@H]2NC(=O)c2cc(-c3ccc(F)cc3F)on2)CC(F)(F)C1 (relative stereo)
pIC50: 6.03
//
molecule: C[C@H]([C@@H](C)O)N1CC[C@@H](NC(=O)c2cc(-c3ccc(F)cc3F)on2)[C@H](C(=O)N(C)C)C1
pIC50: 6.15

// query Report pIC50 for C[C@@H](NC(=O)[C@@H]1CN(C2CCCC2)CC[C@H]1NC(=O)c1cn(-c2ccc(F)cc2F)nn1)c1ccccn1 (relative stereo) tested on human chemokine receptor CXCR7 (Homo sapiens (Human)).
// result 7.44

// query Find the measured pIC50: item O=C(N[C@H]1CCN(CC2CC2)C[C@@H]1C(=O)N1CC[C@@H]1c1ccccc1)c1cc(-c2ccc(F)cc2F)on1 [Example 4.067a] , target or system human chemokine receptor CXCR7 (Homo sapiens (Human)).
// result 7.70

// query Give human chemokine receptor CXCR7 (Homo sapiens (Human)) pIC50 for CC(NC(=O)[C@H]1CN(C2CCCC2)CC[C@@H]1NC(=O)c1cc(-c2ccc(F)cc2F)on1)C1CCCO1 (stereo partly shown)
// result 6.55

// query Give recorded pIC50 with human chemokine receptor CXCR7 (Homo sapiens (Human)) for the following molecule: CCOC(=O)[C@H](NC(=O)[C@H]1CN(CC2CC2)CCC1NC(=O)c1cc(-c2ccc(F)cc2F)on1)c1ccccc1 (stereo partly shown)
// result 6.76

// query Value wanted: pIC50 (human chemokine receptor CXCR7 (Homo sapiens (Human))) of entry CC(CF)NC(=O)[C@@H]1CN(C2CCCCC2)CC[C@H]1NC(=O)c1cc(-c2ccc(F)cc2F)on1 (relative stereo)
// result 6.35

====

# test target: human chemokine receptor CXCR7 (Homo sapiens (Human))
# test method notes: Tango CXCR7-bla U2OS beta-arrestin recruitment assay (beta-lactamase reporter, FRET), antagonism of CXCL12/SDF1-α;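 also: compounds preincubated 15 min before CXCL12 addition, then 22 h at 37 °C, FRET emission ratio read with CCF4-AM substrate after 2 h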
# Format: cell-based
# experimental conditions: antagonistic effect on CXCR7; Tango CXCR7-bla U2OS cells, CXCL12/SDF1-α at its EC80
Rule: measured IC50 below 0.06 µM gets Yes; anything equal to or greater than 0.06 µM gets No.

Examples from the recorded data:
compound: CN(C)C(=O)[C@@H]1CN(C2CCCC2)CC[C@H]1NC(=O)c1cc(-c2ccc(F)cc2F)no1 (racemic) [Example 1.103]
test target: human chemokine receptor CXCR7 (Homo sapiens (Human))
assigned category: No

compound: O=C(N[C@H]1CCN(CC2CC2)C[C@@H]1C(=O)NC1(c2ccccc2O)CC1)c1cc(-c2ccc(F)cc2F)on1 [Example 4.076]
test target: human chemokine receptor CXCR7 (Homo sapiens (Human))
assigned category: No

compound: O=C(N[C@@H]1CCN(CC2CC2)C[C@H]1C(=O)NC1(c2ccccn2)CCC1)c1cc(-c2ccc(F)cc2F)on1 (racemic) [Example 1.197]
test target: human chemokine receptor CXCR7 (Homo sapiens (Human))
assigned category: Yes

compound: COCC(C)(C)NC(=O)[C@@H]1CN(CC2CC2)CC[C@H]1NC(=O)c1cc(-c2c(F)cc(F)cc2F)on1 (single isomer, unassigned) [Example 1.113b]
test target: human chemokine receptor CXCR7 (Homo sapiens (Human))
assigned category: Yes

Turning now to a further compound:
// query Please check: IC50 for CN(CCc1ccccc1)C(=O)[C@@H]1CN(CCO)CC[C@H]1NC(=O)c1cc(-c2ccc(F)cc2F)on1 [Example 2.052] , strictly under 0.06 µM or not?
// result No
